Vascular endothelial growth factor receptor 2 (Homo sapiens, UniProt P35968) pIC50, compiled from various sources.
Sequence (P35968 whole entry): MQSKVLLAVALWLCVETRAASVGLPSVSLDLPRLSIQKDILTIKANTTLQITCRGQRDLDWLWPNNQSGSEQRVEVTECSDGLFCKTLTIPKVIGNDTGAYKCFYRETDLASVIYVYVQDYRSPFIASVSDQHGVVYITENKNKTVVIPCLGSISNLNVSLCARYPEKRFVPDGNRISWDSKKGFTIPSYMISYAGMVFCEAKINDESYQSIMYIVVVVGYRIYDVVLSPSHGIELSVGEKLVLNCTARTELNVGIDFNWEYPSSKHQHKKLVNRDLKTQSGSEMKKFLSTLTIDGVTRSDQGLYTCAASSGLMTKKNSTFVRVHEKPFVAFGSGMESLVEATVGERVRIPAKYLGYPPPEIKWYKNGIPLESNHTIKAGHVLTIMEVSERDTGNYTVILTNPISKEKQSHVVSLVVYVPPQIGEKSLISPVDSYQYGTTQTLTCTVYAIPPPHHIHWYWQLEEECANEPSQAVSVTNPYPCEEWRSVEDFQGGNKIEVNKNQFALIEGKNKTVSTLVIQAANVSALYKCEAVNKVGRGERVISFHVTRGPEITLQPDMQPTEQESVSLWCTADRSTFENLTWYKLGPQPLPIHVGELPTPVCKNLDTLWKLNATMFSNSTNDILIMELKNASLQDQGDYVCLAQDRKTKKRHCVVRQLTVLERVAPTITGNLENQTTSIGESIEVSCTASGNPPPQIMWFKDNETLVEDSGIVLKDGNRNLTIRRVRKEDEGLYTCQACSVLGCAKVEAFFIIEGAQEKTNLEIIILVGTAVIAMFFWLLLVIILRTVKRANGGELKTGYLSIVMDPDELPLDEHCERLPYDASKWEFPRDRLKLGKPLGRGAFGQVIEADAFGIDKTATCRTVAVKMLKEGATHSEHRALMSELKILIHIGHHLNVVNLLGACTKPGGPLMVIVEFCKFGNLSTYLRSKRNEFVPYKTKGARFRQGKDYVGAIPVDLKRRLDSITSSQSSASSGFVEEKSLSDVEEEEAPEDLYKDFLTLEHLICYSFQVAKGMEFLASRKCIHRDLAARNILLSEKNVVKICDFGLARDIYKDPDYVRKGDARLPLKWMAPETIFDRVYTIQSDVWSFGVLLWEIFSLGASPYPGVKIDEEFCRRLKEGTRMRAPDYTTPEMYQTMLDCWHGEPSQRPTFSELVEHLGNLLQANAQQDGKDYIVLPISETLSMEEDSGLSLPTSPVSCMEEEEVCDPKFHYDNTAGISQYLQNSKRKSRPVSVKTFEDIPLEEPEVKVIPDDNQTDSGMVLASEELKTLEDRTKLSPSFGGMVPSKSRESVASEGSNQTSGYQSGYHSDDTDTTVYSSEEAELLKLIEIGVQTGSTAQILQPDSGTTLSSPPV
pIC50: −log10 of the molar value.
readout.name: pIC50

> print(dat)
                                   compound  readout.name  endpoint.result
1  CC(=O)Nc1nc2cnc(Nc3cc(NC(=O)c4cccc(CCC#N)c4)ccc3C)nc2s1         pIC50             6.39

P = COc1cc2ncnc(Nc3cc(Cl)ccc3Cl)c2cc1OCCCCCC(=O)NO
Q = CC1(C)c2cc(OCCN3CCCOCC3)ccc2C(=O)c2c1oc1cc(C#Cc3cc(OCC4CC4)ccn3)ccc21
R = CNc1cc(Oc2ccc(NC(=O)Nc3cccc(C(C)F)c3)cc2)ncn1 (stereo not given)
S = O=C(Nc1ccc2oc(-c3ccc(Cl)cc3)nc2c1)c1ccc(Cl)c(Br)c1
Inquiry: Order the entries by their reported pIC50, beginning at the minimum. Provide the labels, sequenced as the question asks.
Reply text: P, Q, S, R

I = COCCOc1cc2ncnc(Oc3ccc(NC(=O)Nc4cc(C(F)(F)F)ccc4F)cc3)c2c2c1OCCO2
II = O=C(Cn1cc(-c2ccc3c(NC(=O)C4CC4)n[nH]c3c2)cn1)Nc1cc(C(F)(F)F)ccc1F
Inquiry: I'd appreciate it if you could identify which of I and II has the greater pIC50. Answer by stating the label of the chosen item.
Reply text: I

a = COc1cc2c(Nc3cccc(F)c3)ncnc2cc1OCCOCCNC(=O)Cn1cnc([N+](=O)[O-])n1
b = Nc1ncnc2c1c(-c1ccc(Oc3ccccc3)cc1)cn2C1CCCC1
c = Cc1ccc(/C=N/NC(=O)N2CCc3ncnc(Nc4cccc(C(F)(F)F)c4)c3C2)cc1
d = COc1cccc(NC(=O)Cn2cc(Oc3ncnc4cc(OC)cc(OC)c34)cn2)c1
Inquiry: Put the compounds in ascending order of pIC50. Please respond by ranking the labels in the order requested.
Reply text: b, a, c, d
(b: 5.35, a: 5.92, c: 6.82, d: 7.52)

P = O=C(Nc1ccc(Oc2ccnc3ccccc23)cc1)Nc1ccc(Cl)c(C(F)(F)F)c1
Q = COc1ccc2c(c1)NC(=O)/C2=C\c1[nH]cc(CCC(=O)O)c1C
Inquiry: For P and Q , which recorded pIC50 is lower? Output the label that corresponds to your choice.
Reply text: Q
